src = patent US9567302B2

assayed_target: UniProt:Q8R2Y0
Sequence (Q8R2Y0 whole entry): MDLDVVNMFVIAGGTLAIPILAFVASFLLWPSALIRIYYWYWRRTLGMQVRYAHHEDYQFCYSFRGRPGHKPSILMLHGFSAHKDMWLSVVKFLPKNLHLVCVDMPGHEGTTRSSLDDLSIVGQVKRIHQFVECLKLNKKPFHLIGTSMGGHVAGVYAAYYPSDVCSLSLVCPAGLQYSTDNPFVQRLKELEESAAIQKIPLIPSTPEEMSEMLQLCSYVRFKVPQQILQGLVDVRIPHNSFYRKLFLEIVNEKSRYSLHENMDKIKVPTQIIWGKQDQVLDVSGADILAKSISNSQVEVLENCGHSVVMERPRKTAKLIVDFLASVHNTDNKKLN
method_summary: In vitro competitive ABPP, % inhibition at fixed concentration, ABHD6
Format: biochemical
Set-up: from tissue

[
  {
    "molecule": "Cc1cc(-c2ccncc2C)ccc1CN1CCN(C(=O)ON2C(=O)CCC2=O)CC1 [Example 171]",
    "inhibition at 1 µM": "25 to 75%"
  },
  {
    "molecule": "O=C(ON1C(=O)CCC1=O)N1CCN(Cc2cc(C(F)(F)F)ccc2C(=O)N2CCCC2)CC1 [Example 204]",
    "inhibition at 1 µM": "< 25%"
  },
  {
    "molecule": "Cc1cc(-c2ccc(CN3CCN(C(=O)ON4C(=O)CCC4=O)CC3)c(C)c2)ccn1 [Example 159]",
    "inhibition at 1 µM": "25 to 75%"
  },
  {
    "molecule": "O=C(ON1C(=O)CCC1=O)N1CCN(Cc2ccc(Cl)cc2C(=O)N2CCCC2)CC1 [Example 196]",
    "inhibition at 1 µM": "< 25%"
  }
]
